Each entry below carries its recorded IC50.
target: human PD-1/PD-L1 binding (Homo sapiens); construct: PD-L1-His protein (19 to 238 amino acids) (Abcam #ab167713); purchased Abcam (PD-L1-His); R&D (PD-1-Fc) ab167713; 1086-PD; assay: Inhibition of human PD-1/PD-L1 binding (TR-FRET/HTRF); conditions: TR-FRET, PD-L1-His and PD-1-Fc; read-out: PD-1/PD-L1 binding IC50
Sequence (Q9NZQ7 19-238): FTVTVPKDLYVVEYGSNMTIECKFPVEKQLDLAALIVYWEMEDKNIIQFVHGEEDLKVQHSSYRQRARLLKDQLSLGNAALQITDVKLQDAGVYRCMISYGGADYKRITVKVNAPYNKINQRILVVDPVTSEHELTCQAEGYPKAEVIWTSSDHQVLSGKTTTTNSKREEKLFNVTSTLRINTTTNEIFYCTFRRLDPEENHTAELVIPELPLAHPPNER
Report only the number, with the unit nM understood.

Observe how each entry below is paired with its result.
{"compound": "Cc1nccc(NCc2ccc(C(=O)Nc3cccc(-c4cccc(NC(=O)c5nc6c(n5C)CCN(C)C6)c4Cl)c3C)nc2)c1F [Embodiment 105]", "IC50 / nM": 8.5}
{"compound": "COc1nc(-c2cccc(-c3cccc(NC(=O)c4nc5c(n4C)CCN(C)C5)c3Cl)c2Cl)ccc1CN1CC2(CCN(C(C)=O)CC2)C1 [Embodiment 194]", "IC50 / nM": 7.9}
{"compound": "COc1cc(C(=O)Nc2cccc(-c3cccc(NC(=O)c4nc5c(n4C)CCN(C)C5)c3Cl)c2C)ncc1C(C)(C)O [Embodiment 50]", "IC50 / nM": 9}

Quick one: IC50 for C=CCNCc1cnc(C(=O)Nc2cccc(-c3cccc(NC(=O)c4nc5c(n4C)CCN(C)C5)c3Cl)c2C)cc1OC [Embodiment 41] ? 4

Query (compound): COc1cc(-c2cccc(-c3cccc(NC(=O)c4nc5c(n4C)CCN(C)C5)c3Cl)c2C)ncc1CNC[C@@H]1CCC(=O)N1 [Embodiment 58] ; field requested: IC50 1.5

Looking for the measured IC50 of CCn1c(C(=O)Nc2cccc(-c3cccc(-c4ccc(CN5CC6(C5)CN(C(C)=O)C6)c(OC)n4)c3Cl)c2Cl)nc2c1CCN(C)C2 [Embodiment 238] , can you help? 4.1
